Experimental % binding for assorted molecules
# Tested on: PP2A-B55α
# Experimental Details: Single alanine mutational scan, YFP-tagged interactors immunoprecipitated from HeLa cells, Western blot
# Type: binding, human
# Condition Context: single alanine mutant of YFP-tagged CDCA4
Answer format: numeric, % implied, no suffix.

CDCA4 P54: CDCA4, P54 to alanine (protein, UniProt Q9BXL8 1-241, looked up, variant P54A) Cell division …: MFARGLKRKCVGHEEDVEGALAGLKTVSSYSLQRQSLLDMSLVKLQLCHMLVEANLCRSVLIANTVRQIQEEMTQDGTWRTVAPQAAERAPLDRLVSTEILCRAAWGQEGAHPAPGLGDGHTQGPVSDLCPVTSAQAPRHLQSSAWEMDGPRENRGSFHKSLDQIFETLETKNPSCMEELFSDVDSPYYDLDTVLTGMMGGARPGPCEGLEGLAPATPGPSSSCKSDLGELDHVVEILVET ... 66

Proceeding to the next molecule to report its Experimental % binding.
For CDCA4 V60: CDCA4, V60 to alanine (protein, UniProt Q9BXL8 1-241, looked up, variant V60A) Cell division …: MFARGLKRKCVGHEEDVEGALAGLKTVSSYSLQRQSLLDMSLVKLQLCHMLVEPNLCRSALIANTVRQIQEEMTQDGTWRTVAPQAAERAPLDRLVSTEILCRAAWGQEGAHPAPGLGDGHTQGPVSDLCPVTSAQAPRHLQSSAWEMDGPRENRGSFHKSLDQIFETLETKNPSCMEELFSDVDSPYYDLDTVLTGMMGGARPGPCEGLEGLAPATPGPSSSCKSDLGELDHVVEILVET the molecule record lists Experimental % binding as 47

From: paper PMC11446282
